System: RARb homodimer (NR concentration 270 nM)
methodDescription: PBM binding z-score (relative to random genomic background probes); higher = stronger binding; sequences stand for … in GC…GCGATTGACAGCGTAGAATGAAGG
Decision: PBM binding z-score compared against 2; not below it gives T, below it gives F.

INSERT INTO measurements (seqstring, categorylabel) VALUES
  ('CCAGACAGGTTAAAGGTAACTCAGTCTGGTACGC', 'F'),
  ('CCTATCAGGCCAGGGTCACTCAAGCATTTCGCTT', 'T'),
  ('TCTATTAGTTGATTAGGGCAACCAAAACAGCGGA', 'F'),
  ('TAGCCTAGGTTATTCAGGGGCCAGTATAGAAAGC', 'F'),
  ('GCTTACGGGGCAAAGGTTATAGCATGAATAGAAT', 'F'),
  ('AGAACGAGGGCACGCTGAGTGGATAGCAGAGTAG', 'F'),
  ('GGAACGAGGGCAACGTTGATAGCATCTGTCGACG', 'F'),
  ('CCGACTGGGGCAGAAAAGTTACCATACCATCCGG', 'F'),
  ('CCTACTGGGCCAAAAAGGTCTTTGATGCCGATAA', 'F'),
  ('AGTCAAAGTTCACTAGGTAACGTACGATTCAGCT', 'T'),
  ('ACTATTAGTAGACTTAGGGCAACCGATACGACGC', 'F'),
  ('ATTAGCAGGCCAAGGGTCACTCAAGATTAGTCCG', 'T'),
  ('CCGACTGTGGCAAGGTTACCATAACGCACAGCCA', 'F'),
  ('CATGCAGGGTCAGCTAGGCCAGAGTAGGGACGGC', 'T'),
  ('TCTTGTAGAACAAGCAGGTTAAGAAAGCCTGAGT', 'F'),
  ('CAAACTAGGTCACCGGAAGGTCAAAATCCGCATG', 'T'),
  ('CAAACTAGGACAAGGTCAAAGTCGGTTTGTGCCA', 'T'),
  ('TCTCGGAGGACACGAAGATCAGAGCTTTCCAGAG', 'F'),
  ('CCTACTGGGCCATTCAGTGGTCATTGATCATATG', 'F'),
  ('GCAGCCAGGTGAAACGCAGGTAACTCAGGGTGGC', 'F'),
  ('CCGACTGGGGCAAGATTACCATAACGCACAGCCA', 'F'),
  ('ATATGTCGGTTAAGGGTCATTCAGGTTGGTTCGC', 'T'),
  ('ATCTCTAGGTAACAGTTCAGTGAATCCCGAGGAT', 'F'),
  ('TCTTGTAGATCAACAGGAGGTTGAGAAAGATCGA', 'F'),
  ('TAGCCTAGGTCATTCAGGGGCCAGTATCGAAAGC', 'T'),
  ('TCTTGTTGGTCAAAGGTCACACACTCGAAATGCG', 'T'),
  ('CCTCGGAGGACAACAGGAGGTCAGAGTTGCCAGA', 'T'),
  ('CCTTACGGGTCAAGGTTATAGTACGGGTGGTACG', 'T'),
  ('CCTACTGGGGCATTCAGAGGTCATTGATCATATG', 'T'),
  ('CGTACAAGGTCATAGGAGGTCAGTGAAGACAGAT', 'T'),
  ('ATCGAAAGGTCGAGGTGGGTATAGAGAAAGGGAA', 'T'),
  ('AGTCAAAGTTCATCTCGGTAACGTAAGATATGCT', 'T'),
  ('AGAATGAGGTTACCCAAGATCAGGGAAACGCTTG', 'F'),
  ('TCATATAGGTAATTCAGGTGAAAGTCGGCATCTA', 'F'),
  ('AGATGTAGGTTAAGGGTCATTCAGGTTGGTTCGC', 'T'),
  ('ATATGTAGGTTACATCAGGGTCATTCAGGCTATG', 'T'),
  ('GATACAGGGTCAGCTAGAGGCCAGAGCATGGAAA', 'T'),
  ('CAAACTAGGTCACGGGAAGGTCAAAGTCCGCATG', 'T'),
  ('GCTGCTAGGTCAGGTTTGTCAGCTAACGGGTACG', 'T'),
  ('TGAATGAGGTTAAAGACCAGGGAACGTGGCGTCG', 'F'),
  ('AGTATTAGTTGAGACGAGGGCAACCGATAGGTTG', 'F'),
  ('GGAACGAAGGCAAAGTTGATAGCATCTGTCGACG', 'F'),
  ('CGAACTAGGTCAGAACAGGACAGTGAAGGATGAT', 'F'),
  ('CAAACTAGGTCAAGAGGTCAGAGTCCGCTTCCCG', 'T'),
  ('TCTAATAGTTGATTAGGGCAACCGAAACAGCGGA', 'F'),
  ('CCTACTGGGCCAAAGGTCATTGAATCCAATGCTC', 'T'),
  ('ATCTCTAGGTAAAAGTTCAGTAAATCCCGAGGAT', 'T'),
  ('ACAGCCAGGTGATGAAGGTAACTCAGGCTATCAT', 'F'),
  ('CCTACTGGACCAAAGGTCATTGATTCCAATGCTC', 'T');
